Where these numbers come from: ChEMBL document CHEMBL1147878

tested on: Nakaseomyces glabratus; assay: Antifungal activity against Candida glabrata after 48 hrs by serial dilution method; format: functional
Listed below: MIC values for each entry.
Report the value in µg/mL with no unit label.

Item under review: O=C(Cc1ccc(F)cc1)Nc1ccc2oc(Cc3ccc(Cl)cc3)nc2c1 . Reported MIC?
50

Item under review: O=C(Nc1ccc2oc(Cc3ccc(Cl)cc3)nc2c1)c1ccccc1 . Reported MIC?
25

Item under review: O=C(Cc1ccccc1)Nc1ccc2oc(Cc3ccc(Cl)cc3)nc2c1 . Reported MIC?
25

Item under review: Cc1ccc(C(=O)Nc2ccc3oc(Cc4ccccc4)nc3c2)cc1C . Reported MIC?
50

Item under review: CCc1ccc(C(=O)Nc2ccc3oc(Cc4ccc(Cl)cc4)nc3c2)cc1 . Reported MIC?
25

Item under review: O=C(CSc1ccccc1)Nc1ccc2oc(Cc3ccccc3)nc2c1 . Reported MIC?
25

Item under review: O=C(Nc1ccc2oc(Cc3ccc(Cl)cc3)nc2c1)c1ccc(Br)cc1 . Reported MIC?
100

Item under review: O=C(Cc1ccccc1)Nc1ccc2oc(Cc3ccccc3)nc2c1 . Reported MIC?
25

Item under review: Clc1ccc(COC(Cn2ccnc2)c2ccc(Cl)cc2Cl)c(Cl)c1 (stereo unspecified) . Reported MIC?
3.12
